Biological target: hIL-17A (Homo sapiens, UniProt Q16552)
Sequence (Q16552 20-155 limits assumed): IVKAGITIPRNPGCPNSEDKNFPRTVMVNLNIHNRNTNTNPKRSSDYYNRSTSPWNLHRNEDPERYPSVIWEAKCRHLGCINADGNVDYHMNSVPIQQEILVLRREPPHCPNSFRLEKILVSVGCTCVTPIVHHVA
Assay: Inhibition of hIL-17A-induced chemokine GROα/CXCL1 production in HT-29 cell
Description: Human colorectal adenocarcinoma cell HT-29 was inoculated to a 96-well plate (5×10^4 for per well), and incubated at 37° C. on an incubator overnight. […] A level of GROα in a cell culture supernatant was then detected using an ELISA kit for GROα (Cisbio, #62HCXC1peg). […]
MEASUREMENT TYPE: IC50 (nM)
Form entry: value (nM) — number only.

Worked examples, 2 compounds total:
> print(dat)
                                   compound  unit.of.measurement  assay.value
1  COCc1[nH]nc(C)c1-c1ccc(NC(=O)[C@@H](NC(=O)c2nonc2C)C2c3ccc(F)c(F)c3OCC23CC3)cc1 (stereo partly drawn)                   nM         1220
2  Cc1n[nH]c(C)c1-c1ncc(NC(=O)[C@@H](NC(=O)c2conc2C2CC2)C2c3ccc(F)cc3OCC23CC3)cc1F (stereo partly drawn)                   nM          563

Lab note: next compound to report on.
Problem: Supply measured IC50 of Cc1n[nH]c(C)c1-c1ccc(NC(=O)[C@@H](NC(=O)c2nonc2C(C)C)C2c3cc(F)c(F)cc3OCC23CC3)cn1 (stereo partly drawn) in your reply.
Solution: 336

All values here come from patent US20230227437A1.
